Reference source for all entries: ChEMBL document CHEMBL1156237

Experiment: Selectivity index, ratio of CC50 for african green monkey Vero cells to EC50 for Human coxsackievirus B2 Ohio-1
Assay type: toxicity, cell-based
Settings: read-out: Ratio CC50/EC50
Reported selectivity ratio values for a set of compounds

### Prompt Suppose we examine the compound COc1cccc(-c2nc3cc(C(F)(F)F)ccc3[nH]2)c1 ; what selectivity ratio value has been reported?
### Response > 25

----------
Assay: Cytotoxicity against african green monkey Vero cells
Type: cell-based
Details: chlorocebus sabaeus
measured_endpoint: CC50

>>> df
                                   compound    result
0  O=C(CN1CCCC1)Nc1ccc(-c2nc3ccccc3[nH]2)cc1  > 100 µM
1  CC(=O)Nc1ccc(-c2nc3cc(Cl)c(Cl)cc3[nH]2)cc1  > 100 µM
2  O=C(Nc1ccc(-c2nc3cc(C(F)(F)F)ccc3[nH]2)cc1)Nc1ccc(-c2nc3cc(C(F)(F)F)ccc3[nH]2)cc1  > 100 µM
3  O=C(CCl)Nc1ccc(-c2nc3cc(C(F)(F)F)ccc3[nH]2)cc1     35 µM
4  CCN(CC)CC(=O)Nc1ccc(-c2nc3cc(C(F)(F)F)ccc3[nH]2)cc1     24 µM

### Prompt Could you tell me which CC50 is on file for Oc1ccc(-c2nc3cc(C(F)(F)F)ccc3[nH]2)cc1 ?
### Response > 100 µM

### Prompt Param item = Cn1c(-c2ccc([N+](=O)[O-])cc2)nc2cc(C(F)(F)F)ccc21 ; retrieve measured CC50.
### Response > 100 µM

### Prompt For the compound shown here, COc1cc(OC)cc(-c2nc3cc(C(F)(F)F)ccc3[nH]2)c1 , give the reported CC50.
### Response > 100 µM

### Prompt Tell me the measured CC50 of CC(=O)Nc1ccc(-c2nc3cc(C(F)(F)F)ccc3n2C23CC4CC(CC(C4)C2)C3)cc1 , please.
### Response > 100 µM
